- System name: human Nav1.7 (hNav1.7) (Homo sapiens, UniProt Q15858)
- Construct: expressed in transfected cells
- Sequence (Q15858 whole entry): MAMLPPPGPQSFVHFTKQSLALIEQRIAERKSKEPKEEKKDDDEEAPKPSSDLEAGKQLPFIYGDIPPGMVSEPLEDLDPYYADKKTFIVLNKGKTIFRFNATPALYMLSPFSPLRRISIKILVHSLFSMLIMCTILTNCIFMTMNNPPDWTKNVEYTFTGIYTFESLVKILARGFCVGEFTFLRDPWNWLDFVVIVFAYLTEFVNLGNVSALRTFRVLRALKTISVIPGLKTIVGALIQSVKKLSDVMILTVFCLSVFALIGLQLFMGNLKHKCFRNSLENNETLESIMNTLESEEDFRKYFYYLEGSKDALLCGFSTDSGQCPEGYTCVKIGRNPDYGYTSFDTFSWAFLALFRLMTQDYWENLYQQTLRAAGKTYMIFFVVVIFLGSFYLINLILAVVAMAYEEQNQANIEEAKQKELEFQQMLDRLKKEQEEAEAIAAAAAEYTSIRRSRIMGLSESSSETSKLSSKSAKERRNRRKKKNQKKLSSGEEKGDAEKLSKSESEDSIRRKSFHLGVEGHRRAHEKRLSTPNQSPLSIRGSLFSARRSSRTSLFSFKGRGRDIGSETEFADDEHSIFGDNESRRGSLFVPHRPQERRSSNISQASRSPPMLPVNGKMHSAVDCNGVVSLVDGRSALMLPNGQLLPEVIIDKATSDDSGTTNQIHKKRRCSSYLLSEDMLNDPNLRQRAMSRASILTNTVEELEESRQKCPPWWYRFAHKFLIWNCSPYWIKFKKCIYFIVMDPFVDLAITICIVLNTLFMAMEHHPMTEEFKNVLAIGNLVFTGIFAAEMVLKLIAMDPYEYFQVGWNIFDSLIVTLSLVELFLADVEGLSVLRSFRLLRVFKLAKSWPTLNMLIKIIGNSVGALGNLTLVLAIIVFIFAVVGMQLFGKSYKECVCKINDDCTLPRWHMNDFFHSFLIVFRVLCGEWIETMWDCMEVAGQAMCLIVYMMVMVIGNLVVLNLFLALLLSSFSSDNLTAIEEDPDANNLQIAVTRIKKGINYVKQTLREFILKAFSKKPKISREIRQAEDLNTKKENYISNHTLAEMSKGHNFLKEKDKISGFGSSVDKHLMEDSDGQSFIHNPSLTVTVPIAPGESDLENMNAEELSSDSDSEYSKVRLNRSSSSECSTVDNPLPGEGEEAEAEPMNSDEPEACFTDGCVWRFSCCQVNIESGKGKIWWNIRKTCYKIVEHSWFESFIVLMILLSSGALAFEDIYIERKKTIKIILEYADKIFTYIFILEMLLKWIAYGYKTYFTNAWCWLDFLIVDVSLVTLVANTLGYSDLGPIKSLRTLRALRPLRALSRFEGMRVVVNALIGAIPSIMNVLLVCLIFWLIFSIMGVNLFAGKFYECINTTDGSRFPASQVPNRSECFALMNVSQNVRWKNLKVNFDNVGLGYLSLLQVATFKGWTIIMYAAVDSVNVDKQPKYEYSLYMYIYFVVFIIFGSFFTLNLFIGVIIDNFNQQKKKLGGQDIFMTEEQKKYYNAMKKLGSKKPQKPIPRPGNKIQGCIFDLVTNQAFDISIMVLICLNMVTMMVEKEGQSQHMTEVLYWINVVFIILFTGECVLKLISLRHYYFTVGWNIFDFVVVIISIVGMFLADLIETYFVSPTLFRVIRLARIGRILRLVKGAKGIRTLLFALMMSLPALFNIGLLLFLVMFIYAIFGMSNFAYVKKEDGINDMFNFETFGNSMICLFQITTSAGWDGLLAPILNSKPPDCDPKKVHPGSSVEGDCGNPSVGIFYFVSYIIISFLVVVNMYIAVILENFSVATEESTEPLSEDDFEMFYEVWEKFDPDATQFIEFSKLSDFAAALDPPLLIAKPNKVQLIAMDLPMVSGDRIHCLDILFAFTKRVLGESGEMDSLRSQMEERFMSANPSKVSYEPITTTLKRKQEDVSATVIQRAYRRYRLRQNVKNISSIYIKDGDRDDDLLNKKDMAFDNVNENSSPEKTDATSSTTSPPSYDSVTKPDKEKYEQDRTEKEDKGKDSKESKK
- Sequence (Q07699 19-218 partner): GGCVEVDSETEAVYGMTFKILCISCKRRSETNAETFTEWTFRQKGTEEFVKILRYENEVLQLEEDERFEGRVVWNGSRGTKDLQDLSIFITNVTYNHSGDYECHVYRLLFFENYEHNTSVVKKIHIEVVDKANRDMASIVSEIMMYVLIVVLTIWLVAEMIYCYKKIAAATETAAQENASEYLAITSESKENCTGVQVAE
- Experiment description: hNav1.7 slow inactivation block, manual patchclamp
- Assay type: cell-based
- Conditions used: HEK 293F cells stably expressing hNav1.7, slow inactivation induced in approximately 50% of channels
Metric: IC50 (nM)

compound=NC1(C(=O)NCc2cc(-c3cc(C(F)(F)F)cc(C(F)(F)F)c3)cc(C(F)(F)F)c2)CCCC1 readout_number=225
compound=O=C(NCc1cc(F)c(Oc2cc(C(F)(F)F)cc(C(F)(F)F)c2)cc1F)[C@@H]1CCCN1 readout_number=217

P. O=S(=O)(Nc1ncns1)c1cc(F)c(Oc2cc(Cl)cc(C(F)(F)F)c2)cc1F
Q. O=S(=O)(Nc1ncns1)c1cc(F)c(Oc2cc(N3CC(O)C3)cc(C(F)(F)F)c2)cc1F
input: When their IC50 values are compared, which is larger, P or Q ? Provide the label of your selected option as the answer.
output: Q
(Q: 404 nM, P: 256 nM)

I. O=C(NCc1cccc(-c2cc(C(F)(F)F)cc(C(F)(F)F)c2)c1)[C@@H]1CCCN1S(=O)(=O)Nc1ccccc1
II. O=C(NCc1cccc(-c2cc(C(F)(F)F)cc(C(F)(F)F)c2)c1)C1CC[C@@H](F)C1 (stereo partly drawn)
input: Rank I against II by their IC50 values and give the higher one. Answer by stating the label of the chosen item.
output: II

a. O=C(NCc1cc(-c2cc(C(F)(F)F)cc(C(F)(F)F)c2)cc(C(F)(F)F)c1)[C@H]1CCCN1
b. O=S(=O)(Nc1ncns1)c1cc(F)c(Oc2cc(C(F)(F)F)cc(C(F)(F)F)c2)cc1F
input: // max by IC50 over [ a , b ] Pick one and reply with its label.
output: b
(b: 393 nM, a: 162 nM)

====

- System name: human Nav1.7 (hNav1.7) (Homo sapiens)
- Construct: expressed in transfected cells
- Experiment description: hNav1.7 slow inactivation block, automated patchclamp
- Assay type: cell-based
- Conditions used: HEK 293F cells stably expressing hNav1.7, slow inactivation induced in approximately 50% of channels
Metric: IC50 (nM)

The examples below pair each entry with its known result.
smiles_structure=O=C(NCc1cc(-c2cc(C(F)(F)F)cc(C(F)(F)F)c2)cc(C(F)(F)F)c1)[C@@H]1C[C@H](F)CN1 readout_number=5130
smiles_structure=CS(=O)(=O)NC(=O)c1cc(F)c(Oc2cc(C(F)(F)F)cc(C(F)(F)F)c2)cc1F readout_number=19200
smiles_structure=O=S(=O)(Nc1ncns1)c1ccc(Oc2cc(C(F)(F)F)cc(C(F)(F)F)c2)c(Cl)c1 readout_number=21100
smiles_structure=N#Cc1cc(Oc2cc(F)c(S(=O)(=O)Nc3ncns3)cc2F)cc(C(F)(F)F)c1 readout_number=18000

a. NC(=O)c1cc(Oc2cc(F)c(S(=O)(=O)Nc3ncns3)cc2F)cc(C(F)(F)F)c1
b. NC1(C(=O)NCc2cc(-c3cc(C(F)(F)F)cc(C(F)(F)F)c3)cc(C(F)(F)F)c2)CCCC1
c. O=S(=O)(Nc1ncns1)c1cc(F)c(Oc2cc(C(F)(F)F)cc(C(F)(F)F)c2)cc1F
input: Falling order of IC50, please. # format: label list in the order the request specifies
output: a, c, b
(a: 23600 nM, c: 7250 nM, b: 1880 nM)

P. O=S(=O)(Nc1ncns1)c1cc(F)c(Oc2cc(F)cc(Cl)c2)cc1F
Q. O=C(NCc1cc(F)c(Oc2cc(C(F)(F)F)cc(C(F)(F)F)c2)cc1F)[C@@H]1CCCN1
input: Given the listed items, does P or Q have the lesser reported IC50? Response format: the label of the selected entry.
output: Q

I. CN1CCC[C@H]1C(=O)NCc1cccc(-c2cc(C(F)(F)F)cc(C(F)(F)F)c2)c1
II. O=C(NCc1cccc(-c2cc(C(F)(F)F)cc(C(F)(F)F)c2)c1)[C@@H]1CCCN1S(=O)(=O)Nc1ccccc1
input: Could you please tell me which of these two has the higher IC50: I or II ? # reply format: chosen label
output: II

====

- System name: human Nav1.7 (hNav1.7) (Homo sapiens)
- Construct: expressed in transfected cells
- Experiment description: hNav1.7 slow inactivation block, manual patchclamp
- Assay type: cell-based
- Conditions used: HEK 293F cells stably expressing hNav1.7, slow inactivation induced in approximately 50% of channels
Metric: IC50 (nM)

smiles_structure=O=S(=O)(Nc1cccnn1)c1cc(F)c(Oc2cc(C(F)(F)F)cc(C(F)(F)F)c2)cc1F readout_number=4840

A. O=S(=O)(Nc1ncns1)c1cc(F)c(Oc2cc(F)cc(Cl)c2)cc1F
B. O=C(NCc1cccc(-c2cc(C(F)(F)F)cc(C(F)(F)F)c2)c1)[C@@H]1C[C@H](F)CN1
input: Which gives the smaller IC50 number: A or B ? Record your answer as the label of the chosen record.
output: B
(B: 466 nM, A: 678 nM)

====

- System name: human Nav1.7 (hNav1.7) (Homo sapiens, UniProt Q15858)
- Construct: expressed in transfected cells
- Experiment description: hNav1.7 slow inactivation block, automated patchclamp
- Type: cell-based
- Conditions used: HEK 293F cells stably expressing hNav1.7, slow inactivation induced in approximately 50% of channels
Metric: IC50

The reported IC50 of the molecule `O=S(=O)(Nc1ncns1)c1cc(F)c(Oc2cc(N3CCC3)cc(C(F)(F)F)c2)cc1F` was ~3060 nM

The measured IC50 associated with `O=S(=O)(Nc1nncs1)c1ccc(Oc2cc(C(F)(F)F)cc(C(F)(F)F)c2)cc1` reads > 32000 nM

Reported IC50 ( `COCc1nsc(NS(=O)(=O)c2cc(F)c(Oc3cc(OC)cc(C(F)(F)F)c3)cc2F)n1` ) = > 32000 nM

Looking up `COc1cc(Oc2cc(F)c(S(=O)(=O)Nc3ncns3)cc2F)cc(C(F)(F)F)c1` , I found its IC50 recorded as ~6250 nM

For `O=C(NCc1cc(F)c(Oc2cc(C(F)(F)F)cc(C(F)(F)F)c2)cc1F)c1ncns1` the molecule record lists IC50 as 8430 nM

// `O=C(O)c1cc(Oc2cc(F)c(S(=O)(=O)Nc3ncns3)cc2F)cc(C(F)(F)F)c1` : IC50 value = > 32000 nM

Recorded IC50 (molecule `O=S(=O)(Nc1nccs1)c1ccc(Oc2cc(C(F)(F)F)cc(C(F)(F)F)c2)cc1` ): ~29500 nM

Short answer for `CN(C)C(=O)c1cc(Oc2cc(F)c(S(=O)(=O)Nc3ncns3)cc2F)cc(C(F)(F)F)c1` : IC50 was ~17100 nM

====

- System name: rat Nav1.2 (rNav1.2) (Rattus norvegicus, UniProt P04775)
- Construct: expressed in transfected cells
- Sequence (P04775 whole entry): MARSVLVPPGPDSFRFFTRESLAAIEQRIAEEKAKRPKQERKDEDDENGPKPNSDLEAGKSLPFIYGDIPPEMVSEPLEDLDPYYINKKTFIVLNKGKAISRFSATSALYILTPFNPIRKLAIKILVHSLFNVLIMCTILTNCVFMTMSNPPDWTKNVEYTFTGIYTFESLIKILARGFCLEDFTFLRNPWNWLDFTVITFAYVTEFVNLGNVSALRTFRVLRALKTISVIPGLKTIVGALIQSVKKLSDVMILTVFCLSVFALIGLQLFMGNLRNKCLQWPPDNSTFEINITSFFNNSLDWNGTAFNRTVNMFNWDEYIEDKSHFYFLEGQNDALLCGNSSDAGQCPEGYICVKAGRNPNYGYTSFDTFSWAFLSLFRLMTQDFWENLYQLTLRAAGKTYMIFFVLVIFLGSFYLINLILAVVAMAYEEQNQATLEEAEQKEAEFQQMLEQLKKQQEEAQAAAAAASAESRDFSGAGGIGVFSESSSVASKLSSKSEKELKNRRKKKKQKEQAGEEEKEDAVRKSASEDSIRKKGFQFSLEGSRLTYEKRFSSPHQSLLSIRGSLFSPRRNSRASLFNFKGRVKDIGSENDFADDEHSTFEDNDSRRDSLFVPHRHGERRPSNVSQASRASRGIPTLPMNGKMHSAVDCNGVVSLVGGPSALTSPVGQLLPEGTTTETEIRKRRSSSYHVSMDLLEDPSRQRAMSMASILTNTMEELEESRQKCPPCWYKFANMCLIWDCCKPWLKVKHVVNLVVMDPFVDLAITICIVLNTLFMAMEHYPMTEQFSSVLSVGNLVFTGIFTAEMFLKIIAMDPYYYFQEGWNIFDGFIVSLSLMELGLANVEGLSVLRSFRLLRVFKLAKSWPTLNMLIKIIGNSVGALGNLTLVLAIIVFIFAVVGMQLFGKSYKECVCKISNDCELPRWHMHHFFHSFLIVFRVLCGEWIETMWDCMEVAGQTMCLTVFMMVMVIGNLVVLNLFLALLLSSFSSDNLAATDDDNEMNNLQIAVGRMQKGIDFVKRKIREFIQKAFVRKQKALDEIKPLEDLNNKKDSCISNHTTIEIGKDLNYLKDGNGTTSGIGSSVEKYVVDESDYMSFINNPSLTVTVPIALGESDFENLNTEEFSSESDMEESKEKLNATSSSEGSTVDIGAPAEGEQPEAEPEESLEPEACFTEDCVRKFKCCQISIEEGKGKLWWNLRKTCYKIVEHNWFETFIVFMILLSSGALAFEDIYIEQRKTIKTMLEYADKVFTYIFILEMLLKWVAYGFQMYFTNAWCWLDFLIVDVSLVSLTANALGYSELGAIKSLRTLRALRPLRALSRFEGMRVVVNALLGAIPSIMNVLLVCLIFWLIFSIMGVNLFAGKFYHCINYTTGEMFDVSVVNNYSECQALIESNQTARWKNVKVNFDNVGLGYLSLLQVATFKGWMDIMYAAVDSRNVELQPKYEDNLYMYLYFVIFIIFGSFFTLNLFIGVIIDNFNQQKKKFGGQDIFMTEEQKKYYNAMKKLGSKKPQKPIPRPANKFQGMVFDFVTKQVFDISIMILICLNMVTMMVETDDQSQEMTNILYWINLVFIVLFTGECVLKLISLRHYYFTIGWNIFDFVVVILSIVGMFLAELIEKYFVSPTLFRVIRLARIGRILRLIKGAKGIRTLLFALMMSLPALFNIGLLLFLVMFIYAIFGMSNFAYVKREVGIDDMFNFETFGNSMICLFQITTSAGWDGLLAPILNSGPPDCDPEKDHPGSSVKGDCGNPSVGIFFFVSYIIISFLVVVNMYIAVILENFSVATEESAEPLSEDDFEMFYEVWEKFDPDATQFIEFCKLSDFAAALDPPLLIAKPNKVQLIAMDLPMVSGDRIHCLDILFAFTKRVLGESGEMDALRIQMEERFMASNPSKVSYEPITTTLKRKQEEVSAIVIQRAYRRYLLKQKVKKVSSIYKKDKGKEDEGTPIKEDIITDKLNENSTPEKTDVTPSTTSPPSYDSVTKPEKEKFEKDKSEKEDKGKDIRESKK
- Experiment description: rNav1.2 slow inactivation block, manual patchclamp
- Assay type: cell-based
- Conditions used: HEK 293F cells stably expressing rNav1.2
Property: IC50; scope: individual molecules

These recorded examples may help you get a feel for the data.
molecule="O=S(=O)(Nc1ncns1)c1cc(F)c(Oc2cc(F)cc(C(F)(F)F)c2)cc1F [Compound 32]" result="> 10000 nM"
molecule="CS(=O)(=O)NCc1cc(F)c(Oc2cc(C(F)(F)F)cc(C(F)(F)F)c2)cc1F [Compound 20]" result="~1320 nM"
molecule="O=S(=O)(Nc1cccnn1)c1cc(F)c(Oc2cc(C(F)(F)F)cc(C(F)(F)F)c2)cc1F [Compound 30]" result="11400 nM"

Per the records, this molecule ( CS(=O)(=O)NC(=O)c1cc(F)c(Oc2cc(C(F)(F)F)cc(C(F)(F)F)c2)cc1F [Compound 13] ) has IC50 equal to > 10000 nM

The reported value for NC(=O)c1cc(Oc2cc(F)c(S(=O)(=O)Nc3ncns3)cc2F)cc(C(F)(F)F)c1 [Compound 24] in terms of IC50 is > 10000 nM

molecule O=S(=O)(Nc1ncns1)c1ccc(Oc2cc(C(F)(F)F)cc(C(F)(F)F)c2)cc1 [Compound 6] , IC50 observed: > 10000 nM

Short answer for O=S(=O)(Nc1ncns1)c1cc(F)c(Oc2cc(Br)cc(C(F)(F)F)c2)cc1F [Compound 33] : IC50 was ~4910 nM

The reported IC50 of the molecule O=C(NCc1cccc(-c2cc(C(F)(F)F)cc(C(F)(F)F)c2)c1)C1CC[C@H](O)C1 (stereo partly shown) [Example 63] was 2370 nM

====

- System name: rat Nav1.2 (rNav1.2) (Rattus norvegicus, UniProt P04775)
- Construct: expressed in transfected cells
- Experiment description: rNav1.2 slow inactivation block, manual patchclamp
- Type: cell-based
- Conditions used: HEK 293F cells stably expressing rNav1.2
Metric: IC50 (nM)

Some entries whose results are on file:
molecule=O=C(NCc1cccc(-c2cc(C(F)(F)F)cc(C(F)(F)F)c2)c1)[C@@H]1CCCN1S(=O)(=O)Nc1ccccc1 system_name="rat Nav1.2 (rNav1.2) (Rattus norvegicus, UniProt P04775)" endpoint_unit=nM readout_number=166
molecule=O=C(NCc1cc(-c2cc(C(F)(F)F)cc(C(F)(F)F)c2)cc(C(F)(F)F)c1)[C@H]1CCCN1 system_name="rat Nav1.2 (rNav1.2) (Rattus norvegicus, UniProt P04775)" endpoint_unit=nM readout_number=156
molecule="O=C(NCc1cccc(-c2cc(C(F)(F)F)cc(C(F)(F)F)c2)c1)C1CC[C@@H](O)C1 (some centres unmarked)" system_name="rat Nav1.2 (rNav1.2) (Rattus norvegicus, UniProt P04775)" endpoint_unit=nM readout_number=961
molecule=O=S(=O)(Nc1ncns1)c1cc(F)c(Oc2cc(C3CNC3)cc(C(F)(F)F)c2)cc1F system_name="rat Nav1.2 (rNav1.2) (Rattus norvegicus, UniProt P04775)" endpoint_unit=nM readout_number=387
molecule=NC1(C(=O)NCc2cc(-c3cc(C(F)(F)F)cc(C(F)(F)F)c3)cc(C(F)(F)F)c2)CCCC1 system_name="rat Nav1.2 (rNav1.2) (Rattus norvegicus, UniProt P04775)" endpoint_unit=nM readout_number=120
molecule=O=C(NCc1cc(-c2cc(C(F)(F)F)cc(C(F)(F)F)c2)cc(C(F)(F)F)c1)[C@@H]1C[C@H](F)CN1 system_name="rat Nav1.2 (rNav1.2) (Rattus norvegicus, UniProt P04775)" endpoint_unit=nM readout_number=744

1. O=C(NCc1cc(F)c(Oc2cc(C(F)(F)F)cc(C(F)(F)F)c2)cc1F)c1ncns1
2. O=C(NCc1cccc(-c2cc(C(F)(F)F)cc(C(F)(F)F)c2)c1)[C@@H]1C[C@H](F)CN1
3. O=C(NCc1cc(F)c(Oc2ccccc2)cc1F)[C@@H]1CCCN1
4. O=C(NCc1cc(F)c(Oc2cc(C(F)(F)F)cc(C(F)(F)F)c2)cc1F)[C@@H]1CCCN1
5. O=C(NCc1cccc(-c2cc(C(F)(F)F)cc(C(F)(F)F)c2)c1)C1CCCC1
input: rank_up(items): orders items by reported IC50 in ascending numerical order. // respond by listing labels in the order requested
output: 4, 5, 1, 2, 3
(4: 146 nM, 5: 219 nM, 1: 479 nM, 2: 928 nM, 3: 1890 nM)

A. CN(Cc1cccc(-c2cc(C(F)(F)F)cc(C(F)(F)F)c2)c1)C(=O)[C@@H]1CCCN1
B. O=C(NCc1cccc(-c2cc(C(F)(F)F)cc(C(F)(F)F)c2)c1)C1CC[C@@H](F)C1 (some centres unmarked)
input: For A and B , which recorded IC50 is lower? Answer by quoting the chosen item's label.
output: B
(B: 351 nM, A: 733 nM)
